Data provenance: patent US20250250287A1

Test system: pERK1/2(THR202/TYR204) level in SW620 cell line (KRAS G12V)
Assay: KRAS G12V pERK assay (HTRF) in SW620 cell line
Type: cell-based
Settings: SW620 cells, 2 hrs compound treatment
valueKind: IC50 (µM)
The answer is to be given in µM; state only the numeric part.

>  <molecule>
C#Cc1c(F)ccc2cc(O)cc(-c3nc4c5c(nc(OCC67CCCN6CC(F)C7)nc5c3F)N3CCC3CO4)c12 (single isomer, unassigned) [Example 20]

>  <endpointUnit>
µM

>  <IC50>
0.04

$$$$

Give the reported IC50 for this molecule. C#Cc1c(F)ccc2cc(O)cc(-c3nc4c5c(nc(OCC67CCCN6CC(F)C7)nc5c3F)N3CCC3CO4)c12 (single isomer, unassigned) [Example 18] 0.326
